Data origin, for the record: patent US20250304620A1

Tested on: Pseudomonas aeruginosa ATCC 27853
Format: cell-based
Non-standard residues stand in square brackets, D forms with d. Residues, ends and D or L forms follow the SMILES beside them. dPhe(3,4-Cl2) = N[C@H](Cc1ccc(Cl)c(Cl)c1)C(=O)O
PROPERTY_MEASURED: MIC Pseudomonas aeruginosa ATCC 27853 (µg/mL)

compound="CC(=O)N[C@H](CCCNC(=N)N)C(=O)N[C@H](CCCCN)C(=O)N[C@H](CC(C)C)C(=O)N[C@H](CC(C)C)C(=O)N[C@H](Cc1ccc(Cl)c(Cl)c1)C(=O)N[C@H](CCCCN)C(=O)N[C@H](CC(C)C)C(=O)N[C@H](CCCCN)C(=O)N[C@H](Cc1ccc(Cl)c(Cl)c1)C(=O)N[C@H](CCCCN)C(=O)N[C@H](CCCNC(=N)N)C(N)=O [LV-8] (Ac-[dR][dK][dL][dL][dPhe(3,4-Cl2)][dK][dL][dK][dPhe(3,4-Cl2)][dK][dR]-NH2)" data_value=2
